# Tested on: Differentiated U937 cells
# method description: Cell viability MTT assay
# Assay type: cell-based, human
# condition summary: 4 hr in 5% FCS; negative = apparent increase in viability
measured parameter: MTT Assay (Viability) 4 h d-U937, percentage loss of cell viability (%)
Give your result in % as a bare value.

{"columns": ["cpd smiles", "measured number"],
 "data": [
  ["CNC(=O)Nc1cc(Oc2ccc(NC(=O)Nc3cc(C(C)(C)C)nn3-c3ccc(C)cc3)c(Cl)c2Cl)ncn1", "−38.0"]
]}

Look up MTT Assay (Viability) 4 h d-U937, percentage loss of cell viability for this compound: `CNC(=O)Nc1cc(Oc2ccc(NC(=O)Nc3cc(C4(C)CCCCC4)nn3-c3ccc(C)cc3)c(Cl)c2Cl)ccn1`
−27.3

Now this one: `CNC(=O)Nc1cc(Oc2ccc(NC(=O)Nc3cc(C(C)(C)C)nn3-c3ccc(CO)cc3)c3ncccc23)ccn1`
−31.9

Now this one: `COc1ccc(-n2nc(C(C)(C)C)cc2NC(=O)Nc2ccc(Oc3ccnc(NC(=O)N(C)C)c3)c(Cl)c2Cl)cc1`
−37.2

Now this one: `COCC(=O)Nc1cc(Oc2ccc(NC(=O)Nc3cc(C(C)(C)C)nn3-c3ccc(C)cc3)c(F)c2)ccn1`
1.7

Now this one: `COCC(=O)Nc1cc(Oc2ccc(NC(=O)Nc3cc(C(C)(C)C)nn3-c3ccc(C)cc3)cc2C(F)(F)F)ccn1`
3.3

---

# Test system: Differentiated U937 cells
# method description: Cell viability MTT assay
# Type: cell-based, human
# condition summary: 24 h in 10% FCS; negative = apparent increase in viability
Below: a set of entries, each annotated with reported MTT Assay (Viability) 24 h d-U937, percentage loss of cell viability.
Give your result in % as a bare value.

{"columns": ["cpd smiles", "measured number"],
 "data": [
  ["COCC(=O)Nc1cc(Oc2ccc(NC(=O)Nc3cc(C(C)(C)C)nn3-c3ccc(OC)cc3)c(Cl)c2Cl)ccn1", 87.1],
  ["Cc1ccc(-n2nc(C(C)(C)C)cc2NC(=O)Nc2ccc(Oc3cc(NC(=O)NCCN(C)C)ncn3)c(Cl)c2Cl)cc1", 39.5]
]}

Consider the additional compound presented here.
Look up MTT Assay (Viability) 24 h d-U937, percentage loss of cell viability for this compound: `COCC(=O)Nc1cc(Oc2ccc(NC(=O)Nc3cc(C(C)(C)C)nn3-c3ccc(C)cc3)c3cccnc23)ccn1`
−14.6

---

Below: a set of entries, each annotated with reported log10(IC50).
# System: TNFα release in THP-1 cells
# method description: LPS-induced TNFα release in THP-1 cells
# Format: cell-based, human
# condition summary: Homo sapiens
Each number you see is log10 of IC50, and the unit inside the log is nM.

Example results:
{"columns": ["cpd smiles", "target under test", "measured parameter", "measured number"],
 "data": [
  ["COCC(=O)Nc1cc(CSc2ccc(NC(=O)Nc3cc(C(C)(C)C)nn3-c3ccc(OC)cc3)c(Cl)c2Cl)ccn1", "TNFα release in THP-1 cells", "log10(IC50)", 1.99],
  ["CNC(=O)Nc1nccc(Oc2ccc(NC(=O)Nc3cc(C(C)(C)C)nn3-c3ccc(CO)cc3)c(Cl)c2Cl)n1", "TNFα release in THP-1 cells", "log10(IC50)", 0.23],
  ["COCC(=O)Nc1cc(Oc2ccc(NC(=O)Nc3cc(C(C)(C)C)nn3-c3ccc(C)cc3)c(Cl)c2Cl)ccn1", "TNFα release in THP-1 cells", "log10(IC50)", 0.34]
]}

Look up log10(IC50) for this compound: `CNC(=O)Nc1nccc(Oc2ccc(NC(=O)Nc3cc(C(C)(C)C)nn3-c3ccc(OC)cc3)c(Cl)c2Cl)n1`
0.15

Now this one: `COc1ccc(-n2nc(C(C)(C)C)cc2NC(=O)Nc2ccc(Oc3ccnc(NC(=O)N4CCCC4)c3)c(Cl)c2Cl)cc1`
-0.22

Now this one: `COCC(=O)Nc1cc(Oc2c(NC(=O)Nc3cc(C(C)(C)C)nn3-c3ccc(C)cc3)ccc(F)c2F)ccn1`
3.00

Now this one: `COCC(=O)Nc1cc(Oc2ccc(NC(=O)Nc3cc(C(C)(C)C)nn3-c3ccc(C)cc3)c(Cl)c2F)ccn1`
-0.22

Now this one: `COCC(=O)Nc1cc(Oc2ccc(NC(=O)Nc3cc(C(C)(C)C)nn3-c3ccc(C)cc3)c(Cl)c2C#N)ccn1`
-0.70

Now this one: `CNC(=O)Nc1cc(Oc2ccc(NC(=O)Nc3cc(C(C)(C)C)nn3-c3ccc(C)cc3)c3ncccc23)ccn1`
0.93

Now this one: `Cc1ccc(-n2nc(C(C)(C)C)cc2NC(=O)Nc2ccc(Oc3ccnc(NC(=O)N4CCCC4)c3)c(Cl)c2Cl)cc1`
-0.22

Now this one: `CNC(=O)Nc1cc(Oc2ccc(NC(=O)Nc3cc(C(C)(C)C)nn3-c3ccc(CO)cc3)c(Cl)c2Cl)ccn1`
0.00

Now this one: `CNC(=O)Nc1cc(Oc2ccc(NC(=O)Nc3cc(C(C)(C)C)nn3-c3ccc(OC)cc3)c(Cl)c2Cl)ccn1`
0.00

Now this one: `CNC(=O)Nc1cc(Oc2ccc(NC(=O)Nc3cc(C(C)(C)C)nn3-c3ccc(OC)cc3)c3ncccc23)ccn1`
1.17

Now this one: `CNC(=O)Nc1cc(Oc2ccc(NC(=O)Nc3cc(C(C)(C)C)nn3-c3ccc(C)cc3)c(Cl)c2Cl)ccn1`
0.11

Now this one: `COCC(=O)Nc1nccc(Oc2ccc(NC(=O)Nc3cc(C(C)(C)C)nn3-c3ccc(OC)cc3)c(Cl)c2Cl)n1`
0.34

Now this one: `COCC(=O)Nc1cc(Oc2ccc(NC(=O)Nc3cc(C(C)(C)C)nn3-c3ccc(CO)cc3)c(Cl)c2Cl)ccn1`
0.08

Now this one: `CN(C)[C@@H]1CCN(C(=O)Nc2cc(Oc3ccc(NC(=O)Nc4cc(C(C)(C)C)nn4-c4ccc(O)cc4)c(Cl)c3Cl)ccn2)C1`
-0.15
